protocol-summary: PK test of in vivo efficacy: plasma and tumor tissue drug concentration on day 20 of the CT26 study
Design: species or system BALB/C mice
details: BALB/c, mouse, tumor tissue / plasma, oral, 50 mpk, Group 5, 50 mpk once a day + CS1003; time point 1 h; read-out: T/P* Ratio (tumor tissue / plasma drug concentration)
Protocol: The experiment was conducted on the basis of experimental example 3, on the 20th day after administration, blood samples and tissues were collected from each group at different time points (0 h, 0.25 h, 0.5 h, 1 h, 2 h, 4 h, 8 h and 24 h) after administration.
Structures can show the parent of a compound that is named as a salt.
recorded-metric: Kp at 1 h
Numbers only.

# input What value of Kp at 1 h has been reported for the following compound? Nc1nc(-c2ccc(F)cc2)c(-c2ccc3ncnn3c2)c2nccnc12 [Embodiment 6 hydrochloride]
# output 0.4

* * *

protocol-summary: PK test of in vivo efficacy: plasma and tumor tissue drug concentration on day 20 of the CT26 study
Design: species or system BALB/C mice
details: BALB/C, mouse, plasma, po, 100 mg/kg, Group 3: 100 mg/kg once a day PO alone; day 20; plasma
Where a name gives a salt, the structure may show the parent alone.
recorded-metric: Cmax (µM)
Numbers only, in µM.

# input What value of Cmax has been reported for the following molecule? Nc1nc(-c2ccc(F)cc2)c(-c2ccc3ncnn3c2)c2nccnc12 [Embodiment 6 hydrochloride]
# output 114

* * *

protocol-summary: PK test of in vivo efficacy: plasma and tumor tissue drug concentration on day 20 of the CT26 study
Design: species or system BALB/C mice
details: BALB/C, mouse, plasma, po, 50 mg/kg, Group 8: 50 mg/kg twice a day PO + CS1003 1 mg/kg; day 20; plasma
Counter-ions that a name gives are not always drawn.
recorded-metric: Cmax (µM)
Give bare numbers, in µM.

# input What value of Cmax has been reported for the following compound? Nc1nc(-c2ccc(F)cc2)c(-c2ccc3ncnn3c2)c2nccnc12 [Embodiment 6 hydrochloride]
# output 47.1

* * *

protocol-summary: PK test of in vivo efficacy: plasma and tumor tissue drug concentration on day 20 of the CT26 study
Set-up: species or system BALB/C mice
details: BALB/C, mouse, plasma, po, 50 mg/kg, Group 7: 50 mg/kg twice a day PO alone; day 20; plasma
Structures can show the parent of a compound that is named as a salt.
recorded-metric: AUC(0-t) (µM·h)
Numbers only, in µM·h.

# input What value of AUC(0-t) has been reported for the following molecule? Nc1nc(-c2ccc(F)cc2)c(-c2ccc3ncnn3c2)c2nccnc12 [Embodiment 6 hydrochloride]
# output 42

* * *

protocol-summary: PK test of in vivo efficacy: plasma and tumor tissue drug concentration on day 20 of the CT26 study
Parameters: species or system BALB/C mice
details: BALB/C, mouse, plasma, po, 50 mg/kg, Group 5: 50 mg/kg once a day PO + CS1003 1 mg/kg; day 20; plasma; read-out: T½ (converted)
Counter-ions that a name gives are not always drawn.
recorded-metric: half-life (min)
Numbers only, in min.

# input What value of half-life has been reported for the following molecule? Nc1nc(-c2ccc(F)cc2)c(-c2ccc3ncnn3c2)c2nccnc12 [Embodiment 6 hydrochloride]
# output 63

* * *

Kindly state clearance for each of the entries shown.
protocol-summary: Pharmacokinetic evaluation after single intravenous injection and single oral administration in mice
Format: in vivo
details: mouse; female Balb/C mice, plasma, single IV / single PO study; read-out: Clearance rate
Procedure: Experimental materials: Balb/C mice (female, 15-30 g, 7-9 weeks old, Shanghai Linchang) were used. Experimental method: The pharmacokinetic characteristics of the compound after intravenous injection and oral administration were tested on rodents by standard scheme, in the experiment, the candidate compounds were prepared into clear solutions and administrated to mice by single intravenous injection and single oral administration. […]
Answers are plain numbers, in mL/min/kg.

# input What value of clearance has been reported for the following compound? Nc1nc(-c2ccc(F)cc2)c(-c2ccc3ncnn3c2)c2nccnc12 [Embodiment 6]
# output 5.87

# input What value of clearance has been reported for the following compound? Cc1cc(-c2c(-c3ccc(F)cc3)nc(N)c3nccnc23)cc(C)n1 [Embodiment 1]
# output 16.5

# input What value of clearance has been reported for the following compound? Nc1nc(-c2ccc(F)cc2)c(-c2cc(Cl)nc(C(F)(F)F)c2)c2nccnc12 [Embodiment 3]
# output 18.1

# input What value of clearance has been reported for the following compound? Cc1cc(-c2c(-c3ccc(F)cc3)nc(N)c3nccnc23)cc(Cl)n1 [Embodiment 2]
# output 17.1

# next compound below
# input What value of clearance has been reported for the following compound? Nc1nc(-c2ccc(F)cc2)c(-c2ccc3ncnn3c2)c2ncccc12 [Embodiment 12]
# output 1.72

* * *

protocol-summary: PK test of in vivo efficacy: plasma and tumor tissue drug concentration on day 20 of the CT26 study
Parameters: species or system BALB/C mice
details: BALB/C, mouse, plasma, po, 25 mg/kg, Group 4: 25 mg/kg once a day PO + CS1003 1 mg/kg; day 20; plasma
Counter-ions that a name gives are not always drawn.
recorded-metric: Cmax
Could you give the number and then its unit, please?

# input What value of Cmax has been reported for the following compound? Nc1nc(-c2ccc(F)cc2)c(-c2ccc3ncnn3c2)c2nccnc12 [Embodiment 6 hydrochloride]
# output 32.2 µM

* * *

protocol-summary: PK test of in vivo efficacy: plasma and tumor tissue drug concentration on day 20 of the CT26 study
Parameters: species or system BALB/C mice
details: BALB/C, mouse, plasma, po, 50 mg/kg, Group 8: 50 mg/kg twice a day PO + CS1003 1 mg/kg; day 20; plasma; read-out: T½ (converted)
Counter-ions that a name gives are not always drawn.
recorded-metric: half-life (h)
Numbers only, in h.

# input What value of half-life has been reported for the following molecule? Nc1nc(-c2ccc(F)cc2)c(-c2ccc3ncnn3c2)c2nccnc12 [Embodiment 6 hydrochloride]
# output 1.59

* * *

protocol-summary: PK test of in vivo efficacy: plasma and tumor tissue drug concentration on day 20 of the CT26 study
Parameters: species or system BALB/C mice
details: BALB/c, mouse, tumor tissue / plasma, oral, 100 mpk, Group 3, 100 mpk alone; time point 1 h; read-out: T/P* Ratio (tumor tissue / plasma drug concentration)
Counter-ions that a name gives are not always drawn.
recorded-metric: Kp at 1 h
Numbers only.

# input What value of Kp at 1 h has been reported for the following compound? Nc1nc(-c2ccc(F)cc2)c(-c2ccc3ncnn3c2)c2nccnc12 [Embodiment 6 hydrochloride]
# output 0.6

* * *

protocol-summary: PK test of in vivo efficacy: plasma and tumor tissue drug concentration on day 20 of the CT26 study
Set-up: species or system BALB/C mice
details: BALB/C, mouse, oral, 50 mg/kg; Group 7, 50 mpk twice a day alone; time point 4 h; tumor tissue
Counter-ions that a name gives are not always drawn.
recorded-metric: concentration at 4 h (nM)
Answers are plain numbers, in nM.

# input What value of concentration at 4 h has been reported for the following compound? Nc1nc(-c2ccc(F)cc2)c(-c2ccc3ncnn3c2)c2nccnc12 [Embodiment 6 hydrochloride]
# output 901

* * *

protocol-summary: PK test of in vivo efficacy: plasma and tumor tissue drug concentration on day 20 of the CT26 study
Design: species or system BALB/C mice
details: BALB/c, mouse, tumor tissue / plasma, oral, 100 mpk, Group 6, 100 mpk + CS1003; time point 1 h; read-out: T/P* Ratio (tumor tissue / plasma drug concentration)
Structures can show the parent of a compound that is named as a salt.
recorded-metric: Kp at 1 h
One number for each entry.

# input What value of Kp at 1 h has been reported for the following compound? Nc1nc(-c2ccc(F)cc2)c(-c2ccc3ncnn3c2)c2nccnc12 [Embodiment 6 hydrochloride]
# output 0.5

* * *

protocol-summary: PK test of in vivo efficacy: plasma and tumor tissue drug concentration on day 20 of the CT26 study
Design: species or system BALB/C mice
details: BALB/C, mouse, plasma, po, 25 mg/kg, Group 4: 25 mg/kg once a day PO + CS1003 1 mg/kg; day 20; plasma; read-out: T½ (converted)
Where a name gives a salt, the structure may show the parent alone.
recorded-metric: half-life (h)
Numbers only, in h.

# input What value of half-life has been reported for the following compound? Nc1nc(-c2ccc(F)cc2)c(-c2ccc3ncnn3c2)c2nccnc12 [Embodiment 6 hydrochloride]
# output 1.09

* * *

protocol-summary: PK test of in vivo efficacy: plasma and tumor tissue drug concentration on day 20 of the CT26 study
Parameters: species or system BALB/C mice
details: BALB/C, mouse, plasma, po, 50 mg/kg, Group 5: 50 mg/kg once a day PO + CS1003 1 mg/kg; day 20; plasma
Counter-ions that a name gives are not always drawn.
recorded-metric: Cmax (µM)
Numbers only, in µM.

# input What value of Cmax has been reported for the following compound? Nc1nc(-c2ccc(F)cc2)c(-c2ccc3ncnn3c2)c2nccnc12 [Embodiment 6 hydrochloride]
# output 57.2

* * *

protocol-summary: PK test of in vivo efficacy: plasma and tumor tissue drug concentration on day 20 of the CT26 study
Set-up: species or system BALB/C mice
details: BALB/c, mouse, tumor tissue / plasma, oral, 50 mpk, Group 7, 50 mpk twice a day alone; time point 1 h; read-out: T/P* Ratio (tumor tissue / plasma drug concentration)
Counter-ions that a name gives are not always drawn.
recorded-metric: Kp at 1 h
Numbers only.

# input What value of Kp at 1 h has been reported for the following compound? Nc1nc(-c2ccc(F)cc2)c(-c2ccc3ncnn3c2)c2nccnc12 [Embodiment 6 hydrochloride]
# output 0.7
